Target: MCH-5 (Homo sapiens)
Sequence (Q14790 217-374 limits assumed, species assumed): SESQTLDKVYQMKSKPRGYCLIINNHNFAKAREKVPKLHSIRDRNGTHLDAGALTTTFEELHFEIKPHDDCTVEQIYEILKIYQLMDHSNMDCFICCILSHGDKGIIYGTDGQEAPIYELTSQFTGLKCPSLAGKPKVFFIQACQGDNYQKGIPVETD
Sequence (Q14790 385-479 limits assumed, species assumed): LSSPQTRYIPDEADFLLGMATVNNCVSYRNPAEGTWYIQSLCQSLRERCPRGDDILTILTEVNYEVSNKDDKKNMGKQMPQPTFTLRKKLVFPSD
Assay: Fluorescence enzyme assay, IC50 determination, Mch5
Format: biochemical
Details: Table 3; method of Preparation 3A; read-out: MCH5 I50
Protocol: Fluorescence enzyme assays detecting the activity of the compounds of Formula 1 utilizing the recombinant ICE and CPP32 enzymes are performed essentially according to Thornberry et al. (Nature, 356:768:774 (1992)) and Nicholson et al. (Nature, 376:37–43 (1995)) respectively, (herein incorporated by reference) in 96 well microtiter plates. […]
pIC50: −log10 of the molar value.
Decide by pIC50: equal to or exceeding 5 means yes (1), less means no (0).

smiles-string	class
CC(C)C[C@H](NC(=O)COc1cccc2c1CCCC2)C(=O)N[C@H](C=O)CC(=O)O	yes (1)
CC(C)C[C@H](NC(=O)COc1cccc2ncccc12)C(=O)N[C@H](C=O)CC(=O)O	yes (1)
CC(C)C[C@H](NC(=O)COc1ccc2ccccc2c1)C(=O)N[C@H](C=O)CC(=O)O	no (0)
CC(C)C[C@H](NC(=O)CCC(=O)c1ccc2ccccc2c1)C(=O)N[C@H](C=O)CC(=O)O	yes (1)
CC(C)C[C@H](NC(=O)CCOc1ccc2ccccc2c1)C(=O)N[C@H](C=O)CC(=O)O	no (0)
CC(C)C[C@H](NC(=O)COc1cccc2ccccc12)C(=O)N[C@H](C=O)CC(=O)O	yes (1)
CC(C)C[C@H](NC(=O)COc1ccccc1OCc1ccccc1)C(=O)N[C@H](C=O)CC(=O)O	yes (1)

###

target: UniProtKB P42574; assay: Fluorescence enzyme assay, IC50 determination, CPP32; type: biochemical; conditions: Table 3; method of Preparation 3A; read-out: CPP32 I50
Where a SMILES comes first, the peptide text is derived from it. The star is where a group is joined. Hydrocinnamoyl = O=C(CCc1ccccc1)*
Flag rule - IC50 less than 0.4 µM flags condition met; the remaining entries get condition not met.

compound	tgt	class
CC(C)C[C@H](NC(=O)CSc1ccc2ccccc2c1)C(=O)N[C@H](C=O)CC(=O)O	UniProtKB P42574	condition met
CC(C)C[C@H](NC(=O)COc1cccc(-c2ccccc2)c1)C(=O)N[C@H](C=O)CC(=O)O	UniProtKB P42574	condition met
CC(C)C[C@H](NC(=O)COc1ccc(Cl)c2ccccc12)C(=O)N[C@H](C=O)CC(=O)O	UniProtKB P42574	condition met
CC(C)C[C@H](NC(=O)COc1ccccc1Cc1ccccc1)C(=O)N[C@H](C=O)CC(=O)O	UniProtKB P42574	condition not met
CC(C)C[C@H](NC(=O)COc1ccc(OCc2ccccc2)cc1)C(=O)N[C@H](C=O)CC(=O)O	UniProtKB P42574	condition not met
CC(C)C[C@H](NC(=O)CCc1ccccc1)C(=O)N[C@H](C=O)CC(=O)O [Example 35] (Hydrocinnamoyl-Leu-Asp-aldehyde)	UniProtKB P42574	condition not met
CC(C)C[C@H](NC(=O)COc1c(Cl)cc(Cl)c2ccccc12)C(=O)N[C@H](C=O)CC(=O)O	UniProtKB P42574	condition met
CC(C)C[C@H](NC(=O)COc1ccc2ccccc2c1)C(=O)N[C@H](C=O)CC(=O)O	UniProtKB P42574	condition not met
CC(C)C[C@H](NC(=O)CCOc1ccc2ccccc2c1)C(=O)N[C@H](C=O)CC(=O)O	UniProtKB P42574	condition not met
CC(C)C[C@H](NC(=O)CCOc1ccccc1)C(=O)N[C@H](C=O)CC(=O)O	UniProtKB P42574	condition not met
CC(C)C[C@H](NC(=O)C(C)Oc1ccccc1)C(=O)N[C@H](C=O)CC(=O)O (stereo partly shown)	UniProtKB P42574	condition not met
CC(C)C[C@H](NC(=O)COc1ccccc1OCc1ccccc1)C(=O)N[C@H](C=O)CC(=O)O	UniProtKB P42574	condition met
CC(C)C[C@H](NC(=O)C(C)Oc1cccc2ccccc12)C(=O)N[C@H](C=O)CC(=O)O (stereo partly shown)	UniProtKB P42574	condition met
CC(C)C[C@H](NC(=O)COc1ccnc2ccccc12)C(=O)N[C@H](C=O)CC(=O)O	UniProtKB P42574	condition met
CC(C)C[C@H](NC(=O)CCC(=O)c1ccc2ccccc2c1)C(=O)N[C@H](C=O)CC(=O)O	UniProtKB P42574	condition not met

###

target: mICE (Mus musculus); test: Fluorescence enzyme assay, IC50 determination, ICE; format: biochemical; details: Table 3; method of Preparation 3A; read-out: mICE I50
pIC50: −log10 of the molar value. Where a SMILES comes first, the peptide text is derived from it. The star is where a group is joined. Hydrocinnamoyl = O=C(CCc1ccccc1)*

compound	tgt	comparator	pIC50
CC(C)C[C@H](NC(=O)CCCc1ccc2ccccc2c1)C(=O)N[C@H](C=O)CC(=O)O	mICE (Mus musculus)	=	5.74
CC(C)C[C@H](NC(=O)CCc1ccccc1)C(=O)N[C@H](C=O)CC(=O)O [Example 35] (Hydrocinnamoyl-Leu-Asp-aldehyde)	mICE (Mus musculus)	<	5.00
CC(C)C[C@H](NC(=O)CCc1cccc2ccccc12)C(=O)N[C@H](C=O)CC(=O)O	mICE (Mus musculus)	=	5.73
CC(C)C[C@H](NC(=O)COc1cccc2c1CCCC2)C(=O)N[C@H](C=O)CC(=O)O	mICE (Mus musculus)	=	5.74
CC(C)C[C@H](NC(=O)COc1nccc2ccccc12)C(=O)N[C@H](C=O)CC(=O)O	mICE (Mus musculus)	=	4.35
CC(C)C[C@H](NC(=O)COc1cccc2ccccc12)C(=O)N[C@H](C=O)CC(=O)O	mICE (Mus musculus)	=	6.22
CC(C)C[C@H](NC(=O)COc1ccc2c(c1)CCCC2)C(=O)N[C@H](C=O)CC(=O)O	mICE (Mus musculus)	=	5.59

###

molecular target: mICE (Mus musculus, UniProt P29452); assay: Fluorescence enzyme assay, IC50 determination, ICE; format: biochemical; conditions: recombinant enzyme, Ac-YVAD-AMC substrate, 30 min preincubation, room temperature; read-out: mICE IC50
Sequence (P29452 123-296 limits assumed): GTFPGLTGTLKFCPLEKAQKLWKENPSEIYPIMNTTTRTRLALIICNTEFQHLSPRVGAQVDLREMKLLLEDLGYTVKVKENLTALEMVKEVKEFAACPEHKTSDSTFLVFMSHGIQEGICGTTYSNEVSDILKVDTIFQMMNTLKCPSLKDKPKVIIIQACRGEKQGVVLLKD
Sequence (P29452 315-402 limits assumed): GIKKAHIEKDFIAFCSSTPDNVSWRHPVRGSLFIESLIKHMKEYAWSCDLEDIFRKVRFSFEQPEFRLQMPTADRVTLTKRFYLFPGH
pIC50: −log10 of the molar value. Where a SMILES comes first, the peptide text is derived from it. The star is where a group is joined. Cbz = O=C(OCc1ccccc1)*
Known pIC50 of a selection of compounds
quantity-name: pIC50

compound	measured
O=C[C@H](CC(=O)O)NC(=O)[C@@H]1Cc2ccccc2N1C(=O)COc1cccc2ccccc12 [Example 186]	6.53
CC(C)[C@H](NC(=O)COc1cc2ccccc2cc1C(=O)O)C(=O)N[C@H](C=O)CC(=O)O [Example 7]	5.72
O=C[C@H](CC(=O)O)NC(=O)[C@@H]1CSC(c2ccccc2)N1C(=O)COc1cccc2ccccc12 (stereo partly shown) [Example 179]	6.69
CC(C)[C@H](NC(=O)COc1ccc2ccccc2c1C(=O)O)C(=O)N[C@H](C=O)CC(=O)O [Example 5]	5.53
CC(C)[C@H](NC(=O)COc1c(C(=O)O)ccc2ccccc12)C(=O)N[C@H](C=O)CC(=O)O [Example 6]	6.41
CC(C)[C@H](NC(=O)OCc1ccccc1)C(=O)N[C@@H](C)C(=O)N[C@H](C=O)CC(=O)O [reference, Cbz-ValAlaAsp-H, reference compound] (Cbz-Val-Ala-Asp-aldehyde)	7.19
CC(C)C[C@H](NC(=O)COc1cccc2ccccc12)C(=O)N[C@H](C=O)CC(=O)O [Example 1]	6.27

###

target: MCH-2 (Homo sapiens); assay: Dissociation constant Ki and irreversible rate constant k3 for irreversible inhibitors, Mch2; format: biochemical; settings: continuous assay 60 min, reaction initiated by adding enzyme
Sequence (P55212 24-179 limits assumed): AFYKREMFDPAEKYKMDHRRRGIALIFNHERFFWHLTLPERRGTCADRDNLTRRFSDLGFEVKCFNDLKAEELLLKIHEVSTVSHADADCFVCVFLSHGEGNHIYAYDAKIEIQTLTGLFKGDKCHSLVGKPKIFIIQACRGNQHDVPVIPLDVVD
Sequence (P55212 194-293 limits assumed): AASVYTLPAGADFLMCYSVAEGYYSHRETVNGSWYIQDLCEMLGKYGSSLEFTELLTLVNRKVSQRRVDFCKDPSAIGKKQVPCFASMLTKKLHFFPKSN
Where a SMILES comes first, the peptide text is derived from it. The star is where a group is joined. Cbz = O=C(OCc1ccccc1)*; CH2F = FC*
quantity-name: MCH-2 k3/Ki

compound	quantity-name	measured
CC(C)[C@H](NC(=O)COc1cccc2ccccc12)C(=O)N[C@@H](CC(=O)O)C(=O)COc1cc(F)cc(F)c1	MCH-2 k3/Ki	110 M⁻¹ s⁻¹
CC(NC(=O)C(NC(=O)OCc1ccccc1)C(C)C)C(=O)NC(CC(=O)O)C(=O)CF (stereo not drawn) [refer., Cbz-ValAlaAsp-CH2F, reference compound] (Cbz-Val-Ala-Asp-CH2F; configuration not given here)	MCH-2 k3/Ki	2,950 M^−1s^−1
C[C@H](NC(=O)COc1ccc2ccccc2c1)C(=O)NC(CC(=O)O)C(=O)COc1c(F)c(F)cc(F)c1F (stereo partly drawn)	MCH-2 k3/Ki	1,330 M^−1s^−1

###

Known CPP32 k3/Ki of a selection of compounds
Molecular target: CPP32 (Homo sapiens, UniProt P42574)
Sequence (P42574 29-175 limits assumed): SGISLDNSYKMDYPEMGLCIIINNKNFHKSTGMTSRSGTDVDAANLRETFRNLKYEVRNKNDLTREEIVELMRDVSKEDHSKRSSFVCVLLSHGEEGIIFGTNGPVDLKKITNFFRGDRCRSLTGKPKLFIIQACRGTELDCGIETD
Sequence (P42574 176-277 limits assumed): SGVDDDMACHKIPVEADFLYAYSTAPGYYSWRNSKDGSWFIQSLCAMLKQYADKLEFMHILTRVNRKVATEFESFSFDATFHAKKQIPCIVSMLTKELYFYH
Assay: Dissociation constant Ki and irreversible rate constant k3 for irreversible inhibitors, CPP32
Assay type: biochemical
Details: continuous assay 60 min, reaction initiated by adding enzyme
Where a SMILES comes first, the peptide text is derived from it. The star is where a group is joined. Cbz = O=C(OCc1ccccc1)*; CH2F = FC*

compound	tgt	CPP32 k3/Ki
CC(C)[C@H](NC(=O)COc1cccc2ccccc12)C(=O)N[C@@H](CC(=O)O)C(=O)COc1c(F)cccc1F	CPP32 (Homo sapiens, UniProt P42574)	200,000 M^−1s^−1
CC(C)[C@H](NC(=O)COc1cccc2ccccc12)C(=O)N[C@@H](CC(=O)O)C(=O)COP(C)(C)=O	CPP32 (Homo sapiens, UniProt P42574)	44,900 M^−1s^−1
CC(C)[C@H](NC(=O)COc1cccc2ccccc12)C(=O)N[C@@H](CC(=O)O)C(=O)COc1ccc(F)cc1	CPP32 (Homo sapiens, UniProt P42574)	8,560 M^−1s^−1
CC(NC(=O)C(NC(=O)OCc1ccccc1)C(C)C)C(=O)NC(CC(=O)O)C(=O)CF (stereo not drawn) [refer., Cbz-ValAlaAsp-CH2F, reference compound] (Cbz-Val-Ala-Asp-CH2F; configuration not given here)	CPP32 (Homo sapiens, UniProt P42574)	12,200 M^−1s^−1
CC(C)[C@H](NC(=O)COc1cccc2ccccc12)C(=O)N[C@@H](CC(=O)O)C(=O)COc1ccnc(C(F)(F)F)n1	CPP32 (Homo sapiens, UniProt P42574)	114,000 M^−1s^−1
COC(=O)c1cc(OCC(=O)[C@H](CC(=O)O)NC(=O)[C@@H](NC(=O)COc2cccc3ccccc23)C(C)C)no1	CPP32 (Homo sapiens, UniProt P42574)	144,000 M^−1s^−1
CC(C)[C@H](NC(=O)CCOc1cccc2ccccc12)C(=O)NC(CC(=O)O)C(=O)CF (mixture of isomers)	CPP32 (Homo sapiens, UniProt P42574)	41,300 M^−1s^−1
CC(C)[C@H](NC(=O)COc1ccc2ccccc2c1)C(=O)N[C@@H](CC(=O)O)C(=O)COC(=O)c1c(Cl)cccc1Cl	CPP32 (Homo sapiens, UniProt P42574)	206,000 M^−1s^−1
